# measured.on: T1, recombinantly expressed human NOGO-A (hNOGO) (human, UniProt Q9NQC3 586-785, limits assumed)
# T1 sequence (looked up): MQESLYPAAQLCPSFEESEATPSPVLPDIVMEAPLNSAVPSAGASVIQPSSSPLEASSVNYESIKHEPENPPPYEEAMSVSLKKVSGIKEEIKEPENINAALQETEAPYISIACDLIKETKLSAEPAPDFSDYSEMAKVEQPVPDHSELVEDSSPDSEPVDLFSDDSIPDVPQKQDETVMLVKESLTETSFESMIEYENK
# assay.details: SPR, Biacore3000; hNOGO amine-coupled to CM5 chip, antibody in solution
result.type: pKd
Give bare numbers, as −log10 of the molar value.

Anti-NOGO antibody 2C4/1 (mouse monoclonal) (antibody, V domains shown, Mouse hybridoma antibody; also called Mouse 2C4) VH: EVQLVESGGGLVKPGGSLKLSCAASGFTFSCYAMSWVRQTPEKRLEWVASISDGGSYTYYPDNVKGRFTISRDNAKNNLYLQMSHLKSEDTAMYYCAKELLFDYWGQGTTLTVSS VL: DVVMTQTPLSLPVSLGDQASISCRSSQSLVHSNGNTYLHWYLQKPGQSPKLLIYKVSNRFSGVPDRFSGSGSGTDFTLKISRVEAEDLGVYFCSQSTHVPLTFGAGTKLELK = 8.10

Batch request: pKd for each of the following binders.
1. Humanised anti-NOGO antibody H1L11 (antibody, V domains shown, It was expressed transiently in CHO cells; also called H1l L11) VH: QVQLVQSGAEVKKPGASVKVSCKASGYTFTSYWMHWVRQAPGQGLEWMGNINPSNGGTNYNEKFKSRVTMTRDTSTSTVYMELSSLRSEDTAVYYCELGQGYWGQGTTVTVSS VL: DIVITQSPLSLPVTLGQPASISCRSSKSLLYKDGKTYLNWFQQRPGQSPQLLIYLMSTRASGVPDRFSGGGSGTDFTLKISRVEAEDVGVYYCQQLVEYPLTFGQGTKLEIK
2. Anti-NOGO antibody 2A10/3 (mouse monoclonal) (antibody, V domains shown, Mouse hybridoma antibody; also called Mouse 2A10; 2A10-BR) VH: QVQLQQPGTELVKPGASVKLSCKASGYTFTSYWMHWVKQRPGQGLEWIGNINPSNGGTNYNEKFKSKATLTVDKSSSTAYMQLSSLTSEDSAVYYCELGQGYWGQGTTLTVSS VL: DIVITQDELSNPVTSGESVSISCRSSKSLLYKDGKTYLNWFLQRPGQSPQLLIYLMSTRASGVSDRFSGSGSGTDFTLEISRVKAEDVGVYYCQQLVEYPLTFGAGTKLELK
3. Chimeric 2A10 (HcLc) (antibody, human IgG1, kappa, V domains shown, Murine 2A10 V regions on human IgG1/k wild type C regions; also called chimaera of 2A10; the chimera) VH: QVQLQQPGTELVKPGASVKLSCKASGYTFTSYWMHWVKQRPGQGLEWIGNINPSNGGTNYNEKFKSKATLTVDKSSSTAYMQLSSLTSEDSAVYYCELGQGYWGQGTLVTVSS VL: DIVITQDELSNPVTSGESVSISCRSSKSLLYKDGKTYLNWFLQRPGQSPQLLIYLMSTRASGVSDRFSGSGSGTDFTLEISRVKAEDVGVYYCQQLVEYPLTFGAGTKLELKR
4. Anti-NOGO antibody 15C3/3 (mouse monoclonal) (antibody, V domains shown, Mouse hybridoma antibody; also called Mouse 15C3) VH: QVQLQQSGAELVKPGASVKISCKASGYAFSSYWMNWVKQRPGKGLEWIGQIYPGDGDTNYNGKFKGKATLTADKSSSTAYMQLSSLTSEDSAVYFCAVRFDYWGQGTTLTVSS VL: DIVMTQAAPSVPVTPGESVSISCRSSKSLLHSNGNTYLYWFLQRPGQSPQLLIYRMSNLASGVPDRFSGSGSGTAFTLRISRVEAEDVGVYYCMQHLEYPLTFGAGTKLELK

[out]
7.65
9.10
8.90
7.76
